Tested on: SF-268 CNS
Protocol Notes: NCI tumour cell line growth inhibition, 48 h
Hi there, I'd appreciate the recorded log10 TGI for every entry that follows.
Would you kindly interpret these values as log10 of TGI expressed in µM?

Some entries whose results are on file:
[[record]]
compound = "NC(CSC(c1ccccc1)(c1ccccc1)c1ccc2ccccc2c1)C(=O)O (stereo unspecified)"
endpoint_name = "log10 TGI"
recorded_number = 1.14

[[record]]
compound = "CCCCCCCSCC(O)COC(c1ccccc1)(c1ccccc1)c1ccccc1 (stereo unspecified)"
endpoint_name = "log10 TGI"
recorded_number = 1.82


Each of the following entries comes with a recorded value; kindly state log10 TGI for each.
1. CC(C)(C)CC(C)(C)c1ccc(OCCOCCSC(=N)N)cc1
2. CN1C[C@@H]2CCCN2P1Oc1cccc2cccnc12 (stereo partly specified)

1: 1.10; 2: 1.84

---

Test system: SN12C renal
Protocol Notes: NCI tumour cell line growth inhibition, 48 h
Can you tell me TGI for the items I'm about to list?

[[record]]
compound = "COc1cc(C2C(C(=O)Nc3ccccc3)=C(C)NC(C)=C2C(=O)Nc2ccccc2)ccc1O"
endpoint_name = "TGI"
result = "> 100 µM"

[[record]]
compound = "COc1cc2c(cc1OC)CCN=C2"
endpoint_name = "TGI"
result = "> 100 µM"

[[record]]
compound = "O=C(/C=C/c1ccc(Cl)c(Cl)c1)Oc1ccc(/C=C2\\CCCCC2=O)cc1"
endpoint_name = "TGI"
result = "> 100 µM"

[[record]]
compound = "CCC1(OC(C)=O)C(=O)OCc2c1cc1n(c2=O)Cc2cc3ccccc3nc2-1 (stereo not given)"
endpoint_name = "TGI"
result = "> 91.9 µM"


Kindly consider the entry below.
Please report the recorded TGI for COC(=O)C1=C(C)NC(C)=C([N+](=O)[O-])C1c1cccc(NO)c1 (stereo not given) .
> 30.8 µM

---

System: NCI-H460 lung
Protocol Notes: NCI tumour cell line growth inhibition, 48 h
Field: TGI. Provide a value for each of the compounds that follow.
One number for each entry, in µM.

The cases that follow already have their TGI on record.
[[record]]
compound = "Cc1[nH]c2ccccc2c1C=Nc1ccc(Oc2ccccc2)cc1"
study_system = "NCI-H460 lung"
endpoint_name = "TGI"
recorded_number = 40

[[record]]
compound = "COC(=O)C1=C(O)C(C(=O)OC)[C@]2(O)[C@H](C(=O)OC)[C@H]1C[C@@H](c1ccc(OC)cc1)[C@H]2C(=O)OC (stereo partly specified)"
study_system = "NCI-H460 lung"
endpoint_name = "TGI"
recorded_number = 50

[[record]]
compound = "O=Nc1c(O)ccc2ccccc12"
study_system = "NCI-H460 lung"
endpoint_name = "TGI"
recorded_number = 35.7

[[record]]
compound = "CC(C)(C)CC(C)(C)c1ccc(OCCOCCSC(=N)N)cc1"
study_system = "NCI-H460 lung"
endpoint_name = "TGI"
recorded_number = 3.29


Here's the next entry for you.
TGI of `CN(/N=C\c1ccc2ccccc2c1)C1=NCCCCN1` on NCI-H460 lung?
39.7

---

Kindly state GI50 for each of the entries shown.
Tested on: SN12C renal
Protocol Notes: NCI tumour cell line growth inhibition, 48 h

The following compounds have reported results that may help.
[[record]]
compound = "CCNCCNc1cc(-c2ccc(F)cc2)c(C#N)c2nc3ccccc3n12"
result = "3.89 µM"

[[record]]
compound = "COc1ccc(/C=C2\\N=C3SC=C(N)N3C2=O)cc1"
result = "1.57 µM"

[[record]]
compound = "Fc1ccc(-c2ncn(C3CCNCC3)c2-c2ccnc(Oc3cccc(F)c3)n2)cc1"
result = "19.1 µM"

[[record]]
compound = "CC(=O)/C(C)=N/N/C(N)=N\\S(=O)(=O)c1cc(C(=O)Nc2ccccc2)c(Cl)cc1SCc1ccccc1"
result = "28.2 µM"

[[record]]
compound = "O=C1/C(=C/c2cccs2)CCC/C1=C\\c1cccs1"
result = "> 100 µM"

[[record]]
compound = "CC(=O)N1CC(F)(F)c2c(Sc3ncc(N4CCC5(CC4)COC[C@H]5N)nc3N)cccc21"
result = "25.8 µM"


Please look at the items below and tell me GI50 for each one, in order.
1. COc1ccc([C@H]2O[C@@H](CO)C[C@]2(O)c2ccc(OC)cc2)cc1
2. CC/C=C\CCC/C=C1/C(=O)C=C[C@@H]1C/C=C\CCCC(=O)O
3. CC[C@H](C)[C@H](NC(=O)C12C3C4C1C1C2C3C41NC(C)=O)C(=O)N(C)[C@H](C[C@@H](OC(C)=O)c1nc(C(=O)N[C@@H](Cc2ccccc2)C[C@H](C)C(=O)OC)cs1)C(C)C (some centres undefined)

> 100 µM
3.05 µM
0.799 µM

FYI, the data here is from PubChem BioAssay (NCI).
